Biological target: Luciferin 4-monooxygenase (Photinus pyralis) (UniProt P08659)
Sequence (P08659 whole entry, looked up): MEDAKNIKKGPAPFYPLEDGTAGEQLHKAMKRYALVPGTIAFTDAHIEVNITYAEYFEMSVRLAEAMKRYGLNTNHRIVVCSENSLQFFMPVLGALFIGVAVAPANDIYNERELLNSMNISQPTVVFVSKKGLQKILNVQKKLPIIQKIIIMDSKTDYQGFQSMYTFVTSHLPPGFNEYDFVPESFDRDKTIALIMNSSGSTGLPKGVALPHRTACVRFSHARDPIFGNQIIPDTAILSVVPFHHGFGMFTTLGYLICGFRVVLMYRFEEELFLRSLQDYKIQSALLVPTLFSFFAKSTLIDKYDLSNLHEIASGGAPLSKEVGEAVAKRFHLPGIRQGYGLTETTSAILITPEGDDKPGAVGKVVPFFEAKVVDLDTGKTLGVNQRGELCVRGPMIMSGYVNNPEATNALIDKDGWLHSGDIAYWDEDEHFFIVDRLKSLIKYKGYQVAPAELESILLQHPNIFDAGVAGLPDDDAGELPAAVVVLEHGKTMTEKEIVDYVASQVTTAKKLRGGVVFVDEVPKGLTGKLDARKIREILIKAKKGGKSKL
Assay: firefly luciferase enzyme inhibitors, primary screen, biochemical, luminescence, purified enzyme, 2006 set (AID 1141);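 also: cell-free assay with purified firefly luciferase at 100 ng per well in PBS; test concentration not given here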
Details: SteadyGlo luminescence, 30 min, higher = more signal, called active from +8 up or from −8 down
Tick 1 if z-score is -1 or greater. Tick 0 if z-score is less than -1.

CCCCCCCCCCC(O)C1C=CC2C(=O)N(C)C(=O)C2N1NC(=O)OC(C)(C)C (stereo not drawn) = 0
CCOc1cc(C(O)C2C=CC3C(=O)N(C)C(=O)C3N2Nc2ccccc2)ccc1O (stereo not drawn) = 0
CC(C)C(=C=CC[C@H](O)c1ccc(OCCO)cc1)C[C@H](O)c1ccccn1 = 0
COc1ccc([Si](C)(C)[C@@H]2[C@@H](CCn3cc([C@H](O)c4ccccc4)nn3)O[C@]3(C(=O)N(Cc4ccc(N5CCC5=O)cc4)c4ccccc43)[C@H]2C)cc1 = 1
CCCCC(O)C1C=CC2C(=O)N(c3ccccc3)C(=O)C2N1Nc1ccc(C(C)C)cc1 (stereo not drawn) = 0
CO[C@H]1O[C@H](CO)[C@@H](OC(=O)Nc2ccc3c(c2)OCO3)[C@H](OC(=O)c2cc3ccccc3[nH]2)[C@H]1OC(=O)c1cc2ccccc2[nH]1 = 0
[N-]=[N+]=Nc1ccccc1C[C@]1(C(N)=O)N=C(c2ccc(OCCCO)cc2)O[C@H]1c1ccccc1N=[N+]=[N-] = 0
O[C@@H](Cc1ccccc1)[C@@H](/C=C/C1CC1)N(CC#Cc1ccccc1)Cc1cccc(Cl)c1 = 1

Provenance of the data: PubChem BioAssay
